target: furin, P09958; experiment: furin cleavage Z-score vs untreated control; higher = more cleavage, active = 3.5 or more, inactive = 1 or less, 8 variable residues between constant flanks; conditions: 30 min;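 further: purified furin at 1:10 enzyme:substrate in 50 mM HEPES pH 7.5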
Sequence (P09958 whole entry): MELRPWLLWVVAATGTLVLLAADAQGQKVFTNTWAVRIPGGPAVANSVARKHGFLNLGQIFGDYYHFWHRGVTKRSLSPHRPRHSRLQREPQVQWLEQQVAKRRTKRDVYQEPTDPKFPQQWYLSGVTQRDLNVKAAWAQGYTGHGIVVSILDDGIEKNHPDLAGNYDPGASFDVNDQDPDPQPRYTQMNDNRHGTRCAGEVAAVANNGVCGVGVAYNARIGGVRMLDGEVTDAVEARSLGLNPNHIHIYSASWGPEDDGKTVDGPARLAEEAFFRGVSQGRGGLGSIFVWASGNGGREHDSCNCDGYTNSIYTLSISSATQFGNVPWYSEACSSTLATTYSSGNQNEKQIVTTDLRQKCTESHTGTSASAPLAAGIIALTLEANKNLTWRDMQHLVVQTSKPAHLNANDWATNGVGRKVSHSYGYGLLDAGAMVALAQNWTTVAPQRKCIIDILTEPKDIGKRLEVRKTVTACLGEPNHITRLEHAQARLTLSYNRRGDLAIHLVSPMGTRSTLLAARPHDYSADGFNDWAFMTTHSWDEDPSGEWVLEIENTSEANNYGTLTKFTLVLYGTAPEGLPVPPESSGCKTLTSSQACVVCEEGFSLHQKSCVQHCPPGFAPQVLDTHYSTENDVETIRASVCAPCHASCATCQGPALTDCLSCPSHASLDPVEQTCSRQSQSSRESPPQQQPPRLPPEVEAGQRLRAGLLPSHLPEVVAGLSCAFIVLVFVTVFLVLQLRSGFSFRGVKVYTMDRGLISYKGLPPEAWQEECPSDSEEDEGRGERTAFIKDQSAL
The other results are listed elsewhere or left out. The hit rate among all sequences tested is not known here.
Response key: rule met means furin cleavage Z-score >= 0.5; rule not met means furin cleavage Z-score < 0.5.

# BIOPOLYMER SEQUENCE, CLASS NAME
measured = [
    ("CAGREERRRQAGNASASA [FS-787]", "rule not met"),
    ("CAIDILAGYGAGNASASA [HC1085]", "rule not met"),
    ("CAEAADAILHAGNASASA [HC268]", "rule met"),
    ("CAKSPRRTRSAGNASASA [FS-1351]", "rule met"),
    ("CATTPCTGSWAGNASASA [HC76]", "rule not met"),
    ("CAEETTPCSGAGNASASA [HC1972]", "rule not met"),
    ("CALCTTPCSGAGNASASA [HC1945]", "rule not met"),
    ("CAIGGRFDRQAGNASASA [FS-1012]", "rule met"),
    ("CAALIRKLRDAGNASASA [FS-1303]", "rule met"),
    ("CAMEECSLHLAGNASASA [HC1725]", "rule met"),
    ("CAGADTAACGAGNASASA [HC654]", "rule not met"),
    ("CACEVLSDFKAGNASASA [HC1153]", "rule not met"),
    ("CAVEPVVFSQAGNASASA [HC646]", "rule not met"),
    ("CACLRRRRRQAGNASASA [FS-1623]", "rule met"),
    ("CANDARRTRSAGNASASA [FS-693]", "rule met"),
    ("CARMKRESLMAGNASASA [FS-3228]", "rule met"),
    ("CAALARSHRDAGNASASA [FS-1183]", "rule met"),
    ("CARLRKCVEQAGNASASA [FS-1860]", "rule met"),
    ("CASPQRRRRQAGNASASA [FS-1415]", "rule met"),
    ("CAPPSVASSSAGNASASA [HC1258]", "rule met"),
    ("CAEQRRRRRQAGNASASA [FS-234]", "rule met"),
    ("CAHVPCHRPSAGNASASA [HC2315]", "rule met"),
    ("CAIFRRRPRQAGNASASA [FS-801]", "rule met"),
    ("CAEITTPCSGAGNASASA [HC1964]", "rule not met"),
    ("CAMEECKQHLAGNASASA [HC31]", "rule met"),
    ("CANQRRNKREAGNASASA [FS-279]", "rule met"),
    ("CANRLIAFASAGNASASA [HC1119]", "rule met"),
    ("CARMKRILQRAGNASASA [FS-2720]", "rule met"),
    ("CAFCVQPEKGAGNASASA [HC1443]", "rule met"),
    ("CAACARKFRDAGNASASA [FS-1]", "rule not met"),
]
